target: GluN1/GluN2B receptors (Homo sapiens, UniProt Q05586+Q13224); test: IC50 of GluN1/GluN2B receptors expressed in Xenopus oocytes (two electrode voltage-clamp), human; format: cell-based; settings: pH 6.9, 50 μM glutamate, 30 μM glycine, read-out: Human pH 6.9 IC50
Sequence (Q13224 27-1484, other chains not shown): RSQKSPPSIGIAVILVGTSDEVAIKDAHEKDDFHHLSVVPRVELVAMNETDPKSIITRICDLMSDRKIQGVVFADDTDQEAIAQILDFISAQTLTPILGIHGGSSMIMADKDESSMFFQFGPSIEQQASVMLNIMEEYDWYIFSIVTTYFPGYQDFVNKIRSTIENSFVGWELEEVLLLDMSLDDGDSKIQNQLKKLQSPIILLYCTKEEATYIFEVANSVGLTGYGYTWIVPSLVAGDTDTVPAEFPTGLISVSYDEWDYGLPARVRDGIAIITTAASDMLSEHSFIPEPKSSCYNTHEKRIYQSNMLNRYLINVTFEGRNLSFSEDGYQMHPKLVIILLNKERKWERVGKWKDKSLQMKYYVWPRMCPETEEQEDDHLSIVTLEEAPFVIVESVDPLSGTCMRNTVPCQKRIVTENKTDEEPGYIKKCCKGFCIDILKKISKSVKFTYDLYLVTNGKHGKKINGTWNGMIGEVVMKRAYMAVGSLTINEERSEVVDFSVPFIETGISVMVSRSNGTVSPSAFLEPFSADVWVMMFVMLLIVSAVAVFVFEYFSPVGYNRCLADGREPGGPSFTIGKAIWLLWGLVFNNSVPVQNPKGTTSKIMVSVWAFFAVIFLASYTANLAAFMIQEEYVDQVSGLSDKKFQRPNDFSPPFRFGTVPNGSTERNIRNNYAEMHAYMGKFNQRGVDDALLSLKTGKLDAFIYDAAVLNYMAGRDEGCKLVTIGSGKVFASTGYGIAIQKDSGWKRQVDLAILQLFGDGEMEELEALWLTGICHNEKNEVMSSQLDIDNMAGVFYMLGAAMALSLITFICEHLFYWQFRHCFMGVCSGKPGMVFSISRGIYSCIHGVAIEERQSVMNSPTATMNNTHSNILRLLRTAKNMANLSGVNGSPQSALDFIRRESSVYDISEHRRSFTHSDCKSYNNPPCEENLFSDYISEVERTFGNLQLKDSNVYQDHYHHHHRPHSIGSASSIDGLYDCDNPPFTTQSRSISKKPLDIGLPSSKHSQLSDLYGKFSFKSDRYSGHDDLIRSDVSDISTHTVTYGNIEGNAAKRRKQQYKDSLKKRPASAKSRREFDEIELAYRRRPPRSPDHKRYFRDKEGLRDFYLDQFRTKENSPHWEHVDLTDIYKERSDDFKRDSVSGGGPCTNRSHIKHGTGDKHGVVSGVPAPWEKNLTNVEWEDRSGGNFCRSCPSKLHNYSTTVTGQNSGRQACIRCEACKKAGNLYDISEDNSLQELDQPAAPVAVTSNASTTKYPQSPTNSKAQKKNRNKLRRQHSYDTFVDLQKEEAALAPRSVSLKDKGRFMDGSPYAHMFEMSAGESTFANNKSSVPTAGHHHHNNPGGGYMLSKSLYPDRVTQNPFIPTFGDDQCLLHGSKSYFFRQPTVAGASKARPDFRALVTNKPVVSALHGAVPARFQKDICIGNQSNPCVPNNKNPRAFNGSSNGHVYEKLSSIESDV
measurementType: IC50 (nM)
Enter your answer as a number in nM; do not include the unit.

Example cases with answers are listed next.
1. O=C1CCc2cc(OCC3CN(C(=O)NCc4ccc(Cl)cc4)C3)ccc2N1 | 2300
2. O=C1CCc2cc(OCC3CN(C(=O)Nc4ccc(C(F)(F)F)cc4)C3)ccc2N1 | 27

Consider now this further molecule.
# input Quickly give me recorded IC50 for `O=C1CCc2cc(OCC3CCN(C(=O)Cc4ccc(Cl)cc4)CC3)ccc2N1`
# output 490

###

molecular target: GluN1/GluN2B receptors (Homo sapiens, UniProt Q05586+Q13224); assay: IC50 of GluN1/GluN2B receptors expressed in Xenopus oocytes (two electrode voltage-clamp), human; assay type: cell-based; conditions: pH 7.4, 50 μM glutamate, 30 μM glycine, read-out: Human pH 7.4 IC50
measurementType: pIC50
Just the number, please; pIC50 means minus log10 of the concentration in mol/L.

1) O=C1CCc2cc(OCC3CCN(C(=O)Nc4ccc(C(F)(F)F)cc4)CC3)ccc2N1 | 6.29
2) O=C1CCc2cc(OCC3CCN(C(=O)Nc4ccc(Cl)cc4)CC3)ccc2N1 | 6.33
3) O=C1CCc2cc(OCC3CCN(C(=O)/C=C/c4ccc(Cl)c(Cl)c4)CC3)ccc2N1 | 5.79
4) O=C1CCc2cc(OCC3CN(C(=O)Nc4ccc(Cl)cc4)C3)ccc2N1 | 6.77
5) O=C1CCc2cc(OCC3CN(C(=O)Nc4ccc(Cl)c(Cl)c4)C3)ccc2N1 | 7.39
6) O=C1CCc2cc(OCC3CCN(C(=O)Cc4ccc(Cl)cc4)CC3)ccc2N1 | 5.70
7) O=C1CCc2cc(OCC3CN(C(=O)Nc4ccc(C(F)(F)F)cc4)C3)ccc2N1 | 7.13
8) O=C1CCc2cc(OCC3CN(C(=O)NCc4ccc(Cl)cc4)C3)ccc2N1 | 5.46

Consider now this further compound.
# input Quickly give me recorded pIC50 for `O=C1CCc2cc(OCC3CCN(C(=O)OCc4ccc(Cl)cc4)CC3)ccc2N1`
# output 6.06

###

Entries and their pIC50
target: GluN1/GluN2B receptors (Rattus norvegicus, UniProt P35439+Q00960); assay: IC50 of GluN1/GluN2B receptors expressed in Xenopus oocytes (two electrode voltage-clamp), rat; conditions: pH 7.4, 50 μM glutamate, 30 μM glycine
Sequence (Q00960 27-1482, other chains not shown): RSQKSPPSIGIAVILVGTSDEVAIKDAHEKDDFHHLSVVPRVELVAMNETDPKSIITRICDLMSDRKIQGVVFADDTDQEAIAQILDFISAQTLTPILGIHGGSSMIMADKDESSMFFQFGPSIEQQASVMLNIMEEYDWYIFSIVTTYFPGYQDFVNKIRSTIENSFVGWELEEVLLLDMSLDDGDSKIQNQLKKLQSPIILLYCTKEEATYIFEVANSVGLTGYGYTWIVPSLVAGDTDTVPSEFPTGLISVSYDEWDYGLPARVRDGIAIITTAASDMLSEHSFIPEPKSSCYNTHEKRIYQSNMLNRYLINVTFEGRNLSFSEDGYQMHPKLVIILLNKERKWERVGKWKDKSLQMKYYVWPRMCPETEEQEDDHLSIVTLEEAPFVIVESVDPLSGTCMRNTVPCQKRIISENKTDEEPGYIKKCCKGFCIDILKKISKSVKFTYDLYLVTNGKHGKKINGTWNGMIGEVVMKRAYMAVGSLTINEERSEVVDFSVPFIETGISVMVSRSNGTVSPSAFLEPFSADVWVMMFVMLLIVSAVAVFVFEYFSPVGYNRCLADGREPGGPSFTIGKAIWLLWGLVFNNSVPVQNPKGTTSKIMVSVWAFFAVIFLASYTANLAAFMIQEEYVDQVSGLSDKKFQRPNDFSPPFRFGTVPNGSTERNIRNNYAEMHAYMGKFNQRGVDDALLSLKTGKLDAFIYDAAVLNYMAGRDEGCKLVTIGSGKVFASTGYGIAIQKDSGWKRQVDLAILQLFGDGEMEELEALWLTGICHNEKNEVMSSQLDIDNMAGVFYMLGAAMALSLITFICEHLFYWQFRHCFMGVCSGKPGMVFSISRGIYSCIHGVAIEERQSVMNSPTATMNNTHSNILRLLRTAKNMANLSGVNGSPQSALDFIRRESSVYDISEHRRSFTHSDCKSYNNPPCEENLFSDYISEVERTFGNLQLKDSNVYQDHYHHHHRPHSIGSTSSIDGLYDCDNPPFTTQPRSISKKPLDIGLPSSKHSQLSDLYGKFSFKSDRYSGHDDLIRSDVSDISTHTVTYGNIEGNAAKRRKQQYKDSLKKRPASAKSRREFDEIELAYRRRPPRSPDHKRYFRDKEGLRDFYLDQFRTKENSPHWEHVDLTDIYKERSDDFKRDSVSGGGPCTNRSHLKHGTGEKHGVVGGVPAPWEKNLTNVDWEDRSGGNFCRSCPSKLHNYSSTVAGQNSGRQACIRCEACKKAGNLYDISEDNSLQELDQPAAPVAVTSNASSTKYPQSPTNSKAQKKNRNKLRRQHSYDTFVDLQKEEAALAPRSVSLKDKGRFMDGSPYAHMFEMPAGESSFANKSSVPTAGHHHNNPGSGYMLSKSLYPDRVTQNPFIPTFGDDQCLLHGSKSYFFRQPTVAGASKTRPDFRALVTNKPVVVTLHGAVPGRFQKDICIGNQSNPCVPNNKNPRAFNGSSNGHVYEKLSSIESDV
Just the number, please; pIC50 means minus log10 of the concentration in mol/L.

Example cases with answers are listed next.
1) O=C1CCc2cc(OCC3CN(C(=O)Nc4ccc(Cl)cc4)C3)ccc2N1 [Compound 21] | 6.78
2) O=C1CCc2cc(OCC3CN(C(=O)Nc4ccc(Cl)c(Cl)c4)C3)ccc2N1 [Compound 23] | 7.28
3) O=C1CCc2cc(OCC3CCN(C(=O)/C=C/c4ccc(Cl)c(Cl)c4)CC3)ccc2N1 [Compound 6] | 5.90

Consider now this further compound.
# input Give measured pIC50 for O=C1CCc2cc(OCC3CCN(C(=O)Nc4ccc(Cl)cc4)CC3)ccc2N1 [Compound 13] (GluN1/GluN2B receptors (Rattus norvegicus, UniProt P35439+Q00960)).
# output 6.47

###

biological target: GluN1/GluN2B receptors (Homo sapiens, UniProt Q05586+Q13224); experiment: IC50 of GluN1/GluN2B receptors expressed in Xenopus oocytes (two electrode voltage-clamp), human; format: cell-based; conditions: pH 6.9, 50 μM glutamate, 30 μM glycine, read-out: Human pH 6.9 IC50
Binary label based on IC50 with cut-off 300 nM: below gives Y, not below gives N.

Worked examples, 4 compounds total:
1. O=C1CCc2cc(OCC3CN(C(=O)Nc4ccc(Cl)cc4)C3)ccc2N1 [Compound 21] | Y
2. O=C1CCc2cc(OCC3CCN(C(=O)Nc4ccc(C(F)(F)F)cc4)CC3)ccc2N1 [Compound 17] | Y
3. O=C(Nc1ccc(Cl)c(Cl)c1)N1CCC(COc2ccc(O)cc2)CC1 [Compound 35] | N
4. O=C(Nc1ccc(Cl)cc1)N1CCC(COc2ccc(O)cc2)CC1 [Compound 33] | N

Turning now to a further compound:
# input Does the reported IC50 of O=C1CCc2cc(OCC3CCN(C(=O)Nc4ccc(Cl)cc4)CC3)ccc2N1 [Compound 13] stay below 300 nM?
# output Y

###

target: GluN1/GluN2B receptors (Rattus norvegicus, UniProt P35439+Q00960); experiment: IC50 of GluN1/GluN2B receptors expressed in Xenopus oocytes (two electrode voltage-clamp), rat; conditions: pH 7.4, 50 μM glutamate, 30 μM glycine
measurementType: log10(IC50) (log10 of the value in µM)
// do not treat as linear: log10 of IC50, unit µM

Example cases with answers are listed next.
1. O=C1CCc2cc(OCC3CN(C(=O)n4ccnc4)C3)ccc2N1 | 0.79
2. O=C1CCc2cc(OCC3CCN(C(=O)OCc4ccc(Cl)cc4)CC3)ccc2N1 | -0.08
3. O=C1CCc2cc(OCC3CCN(C(=O)Nc4ccc(C(F)(F)F)cc4)CC3)ccc2N1 | -0.44
4. O=C1CCc2cc(OCC3CCN(C(=O)Cc4ccc(Cl)cc4)CC3)ccc2N1 | 0.51

# input Quickly give me recorded log10(IC50) for `O=C1CCc2cc(OCC3CN(C(=O)NCc4ccc(Cl)cc4)C3)ccc2N1`
# output 0.69

# input Quickly give me recorded log10(IC50) for `O=C1CCc2cc(OCC3CN(C(=O)Nc4ccc(C(F)(F)F)cc4)C3)ccc2N1`
# output -1.27

###

target: GluN1/GluN2B receptors (Homo sapiens, UniProt Q05586+Q13224); test: IC50 of GluN1/GluN2B receptors expressed in Xenopus oocytes (two electrode voltage-clamp), human; assay type: cell-based; details: IC50 at pH 7.6 divided by IC50 at pH 6.9
Mark criterion not met for Human pH Boost Ratio (IC50 pH 7.6/IC50 pH 6.9) values under 2, and criterion met for everything at or above.

1) O=C(Nc1ccc(Cl)cc1)N1CCC(COc2ccc(O)cc2)CC1 | criterion not met
2) O=C1CCc2cc(OCC3CCN(C(=O)Cc4ccc(Cl)cc4)CC3)ccc2N1 | criterion met
3) O=C(Nc1ccc(Cl)c(Cl)c1)N1CCC(COc2ccc(O)cc2)CC1 | criterion not met
4) O=C1CCc2cc(OCC3CN(C(=O)Nc4ccc(Cl)c(Cl)c4)C3)ccc2N1 | criterion met
5) O=C1CCc2cc(OCC3CCN(C(=O)/C=C/c4ccc(Cl)c(Cl)c4)CC3)ccc2N1 | criterion not met

Turning now to a further molecule:
# input I'd appreciate it if you could say whether `O=C1CCc2cc(OCC3CN(C(=O)Nc4ccc(C(F)(F)F)cc4)C3)ccc2N1` has Human pH Boost Ratio (IC50 pH 7.6/IC50 pH 6.9) at least equal to 2.
# output criterion met

###

Entries and their hERG Binding % Displacement @ 10 μM
target: human ether-a-go-go potassium channel (hERG) expressed in HEK293 cells (Homo sapiens, UniProt Q12809); construct: expressed in transfected cells; host or cells: HEK293 cells; test: hERG binding, displacement of [3H]-astemizole; conditions: 10 μM test compound, 1.5 nM [3H]-astemizole, duplicate
Sequence (Q12809 whole entry): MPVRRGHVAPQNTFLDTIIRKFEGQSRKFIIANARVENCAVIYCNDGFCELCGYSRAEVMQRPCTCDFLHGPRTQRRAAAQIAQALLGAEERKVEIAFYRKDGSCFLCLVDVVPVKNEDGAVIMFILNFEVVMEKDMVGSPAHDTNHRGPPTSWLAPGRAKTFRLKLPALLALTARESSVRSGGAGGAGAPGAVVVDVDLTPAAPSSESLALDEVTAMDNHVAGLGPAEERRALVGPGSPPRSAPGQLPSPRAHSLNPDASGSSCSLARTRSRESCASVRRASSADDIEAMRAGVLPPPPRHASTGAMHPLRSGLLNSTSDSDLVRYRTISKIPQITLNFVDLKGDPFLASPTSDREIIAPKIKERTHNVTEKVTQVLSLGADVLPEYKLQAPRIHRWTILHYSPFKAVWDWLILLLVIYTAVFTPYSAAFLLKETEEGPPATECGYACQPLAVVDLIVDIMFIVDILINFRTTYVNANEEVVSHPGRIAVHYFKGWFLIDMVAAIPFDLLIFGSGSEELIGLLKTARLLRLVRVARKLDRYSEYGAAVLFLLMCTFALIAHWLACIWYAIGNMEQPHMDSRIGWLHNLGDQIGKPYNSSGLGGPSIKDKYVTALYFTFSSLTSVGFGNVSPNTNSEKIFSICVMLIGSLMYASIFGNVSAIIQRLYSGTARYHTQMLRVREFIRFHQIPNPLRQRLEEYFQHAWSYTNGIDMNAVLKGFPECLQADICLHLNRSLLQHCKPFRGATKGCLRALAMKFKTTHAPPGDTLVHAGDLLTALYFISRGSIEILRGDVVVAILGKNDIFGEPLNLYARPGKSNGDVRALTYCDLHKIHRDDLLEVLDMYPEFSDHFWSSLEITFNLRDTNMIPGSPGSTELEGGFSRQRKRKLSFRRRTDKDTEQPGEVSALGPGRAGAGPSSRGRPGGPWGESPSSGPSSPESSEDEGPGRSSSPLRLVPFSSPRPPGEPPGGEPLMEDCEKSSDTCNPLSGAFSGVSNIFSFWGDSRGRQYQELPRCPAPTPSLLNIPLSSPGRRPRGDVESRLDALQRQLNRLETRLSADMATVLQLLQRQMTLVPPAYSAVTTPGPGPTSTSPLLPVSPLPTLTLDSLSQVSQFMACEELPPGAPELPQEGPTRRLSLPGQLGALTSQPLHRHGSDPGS
Enter your answer as a number in %; do not include the unit.

Example cases with answers are listed next.
1) O=C1CCc2cc(OCC3CN(C(=O)Nc4ccc(C(F)(F)F)cc4)C3)ccc2N1 [Compound 24] | 68
2) O=C1CCc2cc(OCC3CN(C(=O)Nc4ccc(Cl)c(Cl)c4)C3)ccc2N1 [Compound 23] | 60

# input Quickly give me recorded hERG Binding % Displacement @ 10 μM for O=C1CCc2cc(OCC3CCN(C(=O)/C=C/c4ccc(Cl)c(Cl)c4)CC3)ccc2N1 [Compound 6]
# output 85

# input Quickly give me recorded hERG Binding % Displacement @ 10 μM for O=C1CCc2cc(OCC3CN(C(=O)Nc4ccc(Cl)cc4)C3)ccc2N1 [Compound 21]
# output 25

# input Quickly give me recorded hERG Binding % Displacement @ 10 μM for O=C1CCc2cc(OCC3CCN(C(=O)Cc4ccc(Cl)cc4)CC3)ccc2N1 [Compound 15]
# output 18

# input Quickly give me recorded hERG Binding % Displacement @ 10 μM for O=C1CCc2cc(OCC3CCN(C(=O)OCc4ccc(Cl)cc4)CC3)ccc2N1 [Compound 11]
# output 56

###

target: GluN1/GluN2A subtype of NMDA receptors (Rattus norvegicus); assay: NMDA receptor subunit selectivity, GluN1/GluN2A in Xenopus oocytes; format: cell-based; conditions: 2 min; 10 μM antagonist with 50 μM glutamate and 30 μM glycine, two min; agonists alone = 100%; read-out: GluN2A % Current Remaining
Entries and their remaining activity at 10 µM
Enter your answer as a number in %; do not include the unit.

Example cases with answers are listed next.
1. O=C1CCc2cc(OCC3CCN(C(=O)/C=C/c4ccc(Cl)c(Cl)c4)CC3)ccc2N1 | 103
2. O=C1CCc2cc(OCC3CN(C(=O)Nc4ccc(Cl)c(Cl)c4)C3)ccc2N1 | 94.6
3. O=C1CCc2cc(OCC3CCN(C(=O)OCc4ccc(Cl)cc4)CC3)ccc2N1 | 111
4. O=C1CCc2cc(OCC3CN(C(=O)Nc4ccc(Cl)cc4)C3)ccc2N1 | 102
5. O=C1CCc2cc(OCC3CCN(C(=O)Cc4ccc(Cl)cc4)CC3)ccc2N1 | 96.3

# input Quickly give me recorded remaining activity at 10 µM for `O=C(Nc1ccc(Cl)c(Cl)c1)N1CCC(COc2ccc(O)cc2)CC1`
# output 104

# input Quickly give me recorded remaining activity at 10 µM for `O=C1CCc2cc(OCC3CN(C(=O)NCc4ccc(Cl)cc4)C3)ccc2N1`
# output 102

# input Quickly give me recorded remaining activity at 10 µM for `O=C(Nc1ccc(Cl)cc1)N1CCC(COc2ccc(O)cc2)CC1`
# output 111

# input Quickly give me recorded remaining activity at 10 µM for `O=C1CCc2cc(OCC3CN(C(=O)Nc4ccc(C(F)(F)F)cc4)C3)ccc2N1`
# output 94.2
